Sourced from patent US20110251143A1

Test system: HT29 human colon carcinoma
run description: MTT cell growth inhibition, HT29
Assay type: cell-based
assay setup: Homo sapiens, HT-29, 5-10 days
metric name: pIC50
pIC50 is a log-scale quantity: -log10 of the concentration expressed in molar.

Short answer for CO[C@H]1[C@@H](O)[C@@H](C)OC(O[C@H]2[C@H](Oc3cccc4c(O)c5c(=O)oc6ccc(C)c7c(=O)oc(c34)c5c67)O[C@H](C)[C@H](O)[C@]2(C)O)[C@@H]1N (stereo partly shown) : pIC50 was 7.02
